These measurements were taken from ChEMBL document CHEMBL3399966.

Below: a set of entries, each annotated with reported EC50.
# Tested on: Influenza A virus
# measurement.description: Antiviral activity against influenza A virus A/PR/8/34 strain incubated with MDCK cells assessed as reduction of viral RNA level equal to 1% of control level after 72 hrs by branched DNA assay
# Assay type: functional, organism-based
# experimental.setup: A/Puerto Rico/8/1934(H1N1)
Entry rule: numbers only, all in nM.

Consider the reported EC50 for these compounds:
compound="CC(O)[C@H]1C2CCC(CC2)[C@@H]1Nc1nc(-c2c[nH]c3ncc(F)cc23)ncc1F (mixture of isomers)" test_system="Influenza A virus" observed_measurement=490
compound="CNC(=O)[C@H]1C2CCC(CC2)[C@@H]1Nc1nc(-c2c[nH]c3ncc(F)cc23)ncc1F (mixture of isomers)" test_system="Influenza A virus" observed_measurement=35

Read the next record carefully.
Hello, please tell me recorded EC50 for this one: OCC(O)[C@H]1C2CCC(CC2)[C@@H]1Nc1nc(-c2c[nH]c3ncc(F)cc23)ncc1F (mixture of isomers) 41

* * *

A set of compounds tested on Vascular endothelial growth factor receptor 2 (Homo sapiens, UniProt P35968), with measured Ki:

Consider the reported Ki for these compounds:
compound="CS(=O)(=O)[C@H]1C2CCC(CC2)[C@@H]1Nc1nc(-c2c[nH]c3ncc(F)cc23)ncc1F (mixture of isomers)" observed_measurement="1.5 µM"
compound="Fc1cnc2[nH]cc(-c3ncc(F)c(N[C@H]4C5CCC(CC5)[C@@H]4c4nnn[nH]4)n3)c2c1 (mixture of isomers)" observed_measurement="> 4 µM"
compound="CC(O)[C@H]1C2CCC(CC2)[C@@H]1Nc1nc(-c2c[nH]c3ncc(F)cc23)ncc1F (mixture of isomers)" observed_measurement="2 µM"

Provide Ki, tested on Vascular endothelial growth factor receptor 2 (Homo sapiens, UniProt P35968), for O=c1nc([C@H]2C3CCC(CC3)[C@@H]2Nc2nc(-c3c[nH]c4ncc(F)cc34)ncc2F)[nH]o1 (mixture of isomers) . > 4 µM

Provide Ki, tested on Vascular endothelial growth factor receptor 2 (Homo sapiens, UniProt P35968), for CNC(=O)[C@H]1C2CCC(CC2)[C@@H]1Nc1nc(-c2c[nH]c3ncc(F)cc23)ncc1F (mixture of isomers) . > 4 µM

Provide Ki, tested on Vascular endothelial growth factor receptor 2 (Homo sapiens, UniProt P35968), for CC(=O)NS(=O)(=O)[C@H]1C2CCC(CC2)[C@@H]1Nc1nc(-c2c[nH]c3ncc(F)cc23)ncc1F (mixture of isomers) . > 4 µM

Provide Ki, tested on Vascular endothelial growth factor receptor 2 (Homo sapiens, UniProt P35968), for Cc1nnc([C@H]2C3CCC(CC3)[C@@H]2Nc2nc(-c3c[nH]c4ncc(F)cc34)ncc2F)o1 (mixture of isomers) . > 4 µM

Provide Ki, tested on Vascular endothelial growth factor receptor 2 (Homo sapiens, UniProt P35968), for NS(=O)(=O)[C@H]1C2CCC(CC2)[C@@H]1Nc1nc(-c2c[nH]c3ncc(F)cc23)ncc1F (mixture of isomers) . 1.9 µM

Provide Ki, tested on Vascular endothelial growth factor receptor 2 (Homo sapiens, UniProt P35968), for O=c1[nH]c(=O)n(C[C@H]2C3CCC(CC3)[C@@H]2Nc2nc(-c3c[nH]c4ncc(F)cc34)ncc2F)o1 (mixture of isomers) . > 4 µM

* * *

# System: Influenza A virus
# measurement.description: Antiviral activity against influenza A virus A/PR/8/34 strain incubated with MDCK cells assessed as reduction of viral RNA level equal to 1% of control level after 72 hrs by branched DNA assay
# Type: functional, organism-based
# experimental.setup: A/Puerto Rico/8/1934(H1N1)
With a cut-off of 0.3 µM, any EC99 strictly below it is called 1; any EC99 meeting it or above is called 0.

Check if EC99 falls below 0.3 µM for O=c1[nH]c(=O)n(C[C@H]2C3CCC(CC3)[C@@H]2Nc2nc(-c3c[nH]c4ncc(F)cc34)ncc2F)o1 (mixture of isomers) . 1

Check if EC99 falls below 0.3 µM for CNC(=O)[C@H]1C2CCC(CC2)[C@@H]1Nc1nc(-c2c[nH]c3ncc(F)cc23)ncc1F (mixture of isomers) . 0

* * *

# test.system: Receptor-type tyrosine-protein kinase FLT3 (Homo sapiens, UniProt P36888)
# Sequence (P36888 whole entry): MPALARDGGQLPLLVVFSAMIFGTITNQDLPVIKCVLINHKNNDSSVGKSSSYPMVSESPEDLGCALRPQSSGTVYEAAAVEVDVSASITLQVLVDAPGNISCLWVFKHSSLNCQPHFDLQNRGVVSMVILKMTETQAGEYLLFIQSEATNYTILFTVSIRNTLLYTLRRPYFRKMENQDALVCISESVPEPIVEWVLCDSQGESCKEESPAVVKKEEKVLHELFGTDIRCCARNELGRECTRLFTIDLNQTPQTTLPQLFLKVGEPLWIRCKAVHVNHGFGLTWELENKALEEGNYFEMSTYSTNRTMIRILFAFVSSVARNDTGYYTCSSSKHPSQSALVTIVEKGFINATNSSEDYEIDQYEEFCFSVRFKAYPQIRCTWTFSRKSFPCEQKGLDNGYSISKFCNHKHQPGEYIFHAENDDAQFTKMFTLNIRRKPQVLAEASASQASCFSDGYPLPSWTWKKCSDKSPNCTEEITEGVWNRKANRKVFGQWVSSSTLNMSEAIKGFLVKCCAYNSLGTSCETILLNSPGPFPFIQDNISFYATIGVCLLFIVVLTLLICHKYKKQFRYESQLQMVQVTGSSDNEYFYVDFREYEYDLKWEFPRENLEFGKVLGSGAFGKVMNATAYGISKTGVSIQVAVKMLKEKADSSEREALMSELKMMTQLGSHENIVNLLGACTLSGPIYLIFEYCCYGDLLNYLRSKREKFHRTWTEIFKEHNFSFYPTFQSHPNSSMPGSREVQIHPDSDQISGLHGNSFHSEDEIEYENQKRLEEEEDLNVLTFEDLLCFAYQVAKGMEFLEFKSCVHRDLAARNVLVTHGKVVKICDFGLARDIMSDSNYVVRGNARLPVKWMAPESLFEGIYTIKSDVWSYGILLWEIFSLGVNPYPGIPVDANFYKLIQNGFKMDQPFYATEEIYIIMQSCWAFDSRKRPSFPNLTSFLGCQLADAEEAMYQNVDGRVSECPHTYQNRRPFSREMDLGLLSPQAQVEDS
reported.metric: pKi
Schema: pKi number; meaning minus log10 of the concentration expressed in molar units.

compound="Cc1noc([C@H]2C3CCC(CC3)[C@@H]2Nc2nc(-c3c[nH]c4ncc(F)cc34)ncc2F)n1 (mixture of isomers)" observed_measurement=6.01
compound="NS(=O)(=O)[C@H]1C2CCC(CC2)[C@@H]1Nc1nc(-c2c[nH]c3ncc(F)cc23)ncc1F (mixture of isomers)" observed_measurement=5.92

Read the next record carefully.
Hello, please tell me recorded pKi for this one: O=P(O)(O)[C@H]1C2CCC(CC2)[C@@H]1Nc1nc(-c2c[nH]c3ncc(F)cc23)ncc1F (mixture of isomers) 5.96

* * *

# measurement.description: Dissociation constant, pKa of the compound by UC titration method
# Format: physicochemical
reported.metric: pKa
// no unit string in output, number only

Hello, please tell me recorded pKa for this one: O=c1[nH]c(=O)n(C[C@H]2C3CCC(CC3)[C@@H]2Nc2nc(-c3c[nH]c4ncc(F)cc34)ncc2F)o1 (mixture of isomers) 5.2

* * *

Below: a set of entries, each annotated with reported pKi.
# test.system: Phosphatidylinositol 4,5-bisphosphate 3-kinase catalytic subunit delta isoform (Homo sapiens)
# Sequence (O00329 whole entry, canonical isoform): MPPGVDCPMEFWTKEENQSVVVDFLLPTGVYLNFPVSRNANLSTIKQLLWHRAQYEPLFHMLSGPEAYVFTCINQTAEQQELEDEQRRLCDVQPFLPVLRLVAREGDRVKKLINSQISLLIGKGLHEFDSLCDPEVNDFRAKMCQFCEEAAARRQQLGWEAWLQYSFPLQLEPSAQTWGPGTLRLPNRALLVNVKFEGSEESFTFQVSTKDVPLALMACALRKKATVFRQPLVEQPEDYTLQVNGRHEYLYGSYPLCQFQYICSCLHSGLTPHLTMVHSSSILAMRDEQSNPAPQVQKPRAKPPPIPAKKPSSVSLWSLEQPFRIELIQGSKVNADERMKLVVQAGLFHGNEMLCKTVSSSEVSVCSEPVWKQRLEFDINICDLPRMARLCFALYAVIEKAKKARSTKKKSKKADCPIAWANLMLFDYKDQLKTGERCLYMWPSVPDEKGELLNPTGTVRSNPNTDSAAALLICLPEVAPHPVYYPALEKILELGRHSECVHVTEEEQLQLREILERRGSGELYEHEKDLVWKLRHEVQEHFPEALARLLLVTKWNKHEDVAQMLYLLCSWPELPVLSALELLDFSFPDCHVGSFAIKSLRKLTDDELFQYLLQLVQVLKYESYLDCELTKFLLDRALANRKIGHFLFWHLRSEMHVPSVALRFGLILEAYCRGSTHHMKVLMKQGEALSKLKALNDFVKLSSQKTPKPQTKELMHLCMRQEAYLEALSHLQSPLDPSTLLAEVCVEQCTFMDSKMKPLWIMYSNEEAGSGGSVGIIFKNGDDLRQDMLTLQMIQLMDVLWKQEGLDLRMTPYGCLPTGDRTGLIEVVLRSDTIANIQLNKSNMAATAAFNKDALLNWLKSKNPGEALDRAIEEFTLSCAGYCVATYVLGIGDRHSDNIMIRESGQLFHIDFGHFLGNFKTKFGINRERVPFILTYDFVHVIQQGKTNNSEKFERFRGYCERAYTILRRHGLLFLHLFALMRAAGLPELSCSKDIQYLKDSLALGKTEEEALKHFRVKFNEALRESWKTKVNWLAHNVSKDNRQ
# measurement.description: Inhibition of PI3Kdelta (unknown origin)
Schema: pKi number; meaning minus log10 of the concentration expressed in molar units.

Consider the reported pKi for these compounds:
compound="CS(=O)(=O)[C@H]1C2CCC(CC2)[C@@H]1Nc1nc(-c2c[nH]c3ncc(F)cc23)ncc1F (mixture of isomers)" observed_measurement=5.48
compound="O=P(O)(O)CC[C@H]1C2CCC(CC2)[C@@H]1Nc1nc(-c2c[nH]c3ncc(F)cc23)ncc1F (mixture of isomers)" observed_measurement=5.51
compound="Cc1noc([C@H]2C3CCC(CC3)[C@@H]2Nc2nc(-c3c[nH]c4ncc(F)cc34)ncc2F)n1 (mixture of isomers)" observed_measurement=5.60

Hello, please tell me recorded pKi for this one: NS(=O)(=O)[C@H]1C2CCC(CC2)[C@@H]1Nc1nc(-c2c[nH]c3ncc(F)cc23)ncc1F (mixture of isomers) 5.72

* * *

Below: a set of entries, each annotated with reported pKi.
# test.system: Phosphatidylinositol 4,5-bisphosphate 3-kinase catalytic subunit beta isoform (Homo sapiens)
# Sequence (P42338 whole entry, canonical isoform): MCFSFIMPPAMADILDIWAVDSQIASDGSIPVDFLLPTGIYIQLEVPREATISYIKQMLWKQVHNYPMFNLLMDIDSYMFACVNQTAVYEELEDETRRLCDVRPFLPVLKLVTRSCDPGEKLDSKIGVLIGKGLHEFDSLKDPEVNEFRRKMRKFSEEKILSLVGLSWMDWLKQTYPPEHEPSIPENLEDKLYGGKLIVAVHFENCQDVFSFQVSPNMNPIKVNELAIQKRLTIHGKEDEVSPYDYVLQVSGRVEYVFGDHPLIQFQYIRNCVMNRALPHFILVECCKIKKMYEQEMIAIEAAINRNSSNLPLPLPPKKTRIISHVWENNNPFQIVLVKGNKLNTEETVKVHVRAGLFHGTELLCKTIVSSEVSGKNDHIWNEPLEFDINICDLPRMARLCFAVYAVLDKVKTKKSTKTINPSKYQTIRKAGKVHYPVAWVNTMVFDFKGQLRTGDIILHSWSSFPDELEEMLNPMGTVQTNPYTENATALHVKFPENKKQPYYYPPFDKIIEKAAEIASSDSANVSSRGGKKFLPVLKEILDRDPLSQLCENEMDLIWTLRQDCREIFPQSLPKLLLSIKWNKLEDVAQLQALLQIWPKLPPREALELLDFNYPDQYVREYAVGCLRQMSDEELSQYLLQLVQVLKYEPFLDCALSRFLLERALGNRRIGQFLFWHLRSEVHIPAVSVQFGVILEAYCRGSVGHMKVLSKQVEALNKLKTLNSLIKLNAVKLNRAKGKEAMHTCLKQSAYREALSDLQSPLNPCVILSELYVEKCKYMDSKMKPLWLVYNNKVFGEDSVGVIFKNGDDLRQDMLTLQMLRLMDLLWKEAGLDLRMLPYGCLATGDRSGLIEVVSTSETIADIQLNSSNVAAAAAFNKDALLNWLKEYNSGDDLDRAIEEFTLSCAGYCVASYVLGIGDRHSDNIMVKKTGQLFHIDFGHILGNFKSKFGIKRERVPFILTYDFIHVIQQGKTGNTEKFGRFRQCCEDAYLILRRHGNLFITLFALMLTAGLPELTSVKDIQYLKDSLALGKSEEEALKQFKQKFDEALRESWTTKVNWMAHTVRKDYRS
# measurement.description: Inhibition of PI3Kbeta (unknown origin)
pKi: −log10 of the molar value.

Consider the reported pKi for these compounds:
compound="CC(=O)NS(=O)(=O)[C@H]1C2CCC(CC2)[C@@H]1Nc1nc(-c2c[nH]c3ncc(F)cc23)ncc1F (mixture of isomers)" observed_measurement="< 5.40"
compound="OCC(O)[C@H]1C2CCC(CC2)[C@@H]1Nc1nc(-c2c[nH]c3ncc(F)cc23)ncc1F (mixture of isomers)" observed_measurement=5.60
compound="O=P(O)(O)CC[C@H]1C2CCC(CC2)[C@@H]1Nc1nc(-c2c[nH]c3ncc(F)cc23)ncc1F (mixture of isomers)" observed_measurement="< 5.40"

Read the next record carefully.
Hello, please tell me recorded pKi for this one: Oc1cc([C@H]2C3CCC(CC3)[C@@H]2Nc2nc(-c3c[nH]c4ncc(F)cc34)ncc2F)[nH]n1 (mixture of isomers) < 5.40

* * *

# test.system: Phosphatidylinositol 4,5-bisphosphate 3-kinase catalytic subunit gamma isoform (Homo sapiens, UniProt P48736)
# Sequence (P48736 whole entry, canonical isoform): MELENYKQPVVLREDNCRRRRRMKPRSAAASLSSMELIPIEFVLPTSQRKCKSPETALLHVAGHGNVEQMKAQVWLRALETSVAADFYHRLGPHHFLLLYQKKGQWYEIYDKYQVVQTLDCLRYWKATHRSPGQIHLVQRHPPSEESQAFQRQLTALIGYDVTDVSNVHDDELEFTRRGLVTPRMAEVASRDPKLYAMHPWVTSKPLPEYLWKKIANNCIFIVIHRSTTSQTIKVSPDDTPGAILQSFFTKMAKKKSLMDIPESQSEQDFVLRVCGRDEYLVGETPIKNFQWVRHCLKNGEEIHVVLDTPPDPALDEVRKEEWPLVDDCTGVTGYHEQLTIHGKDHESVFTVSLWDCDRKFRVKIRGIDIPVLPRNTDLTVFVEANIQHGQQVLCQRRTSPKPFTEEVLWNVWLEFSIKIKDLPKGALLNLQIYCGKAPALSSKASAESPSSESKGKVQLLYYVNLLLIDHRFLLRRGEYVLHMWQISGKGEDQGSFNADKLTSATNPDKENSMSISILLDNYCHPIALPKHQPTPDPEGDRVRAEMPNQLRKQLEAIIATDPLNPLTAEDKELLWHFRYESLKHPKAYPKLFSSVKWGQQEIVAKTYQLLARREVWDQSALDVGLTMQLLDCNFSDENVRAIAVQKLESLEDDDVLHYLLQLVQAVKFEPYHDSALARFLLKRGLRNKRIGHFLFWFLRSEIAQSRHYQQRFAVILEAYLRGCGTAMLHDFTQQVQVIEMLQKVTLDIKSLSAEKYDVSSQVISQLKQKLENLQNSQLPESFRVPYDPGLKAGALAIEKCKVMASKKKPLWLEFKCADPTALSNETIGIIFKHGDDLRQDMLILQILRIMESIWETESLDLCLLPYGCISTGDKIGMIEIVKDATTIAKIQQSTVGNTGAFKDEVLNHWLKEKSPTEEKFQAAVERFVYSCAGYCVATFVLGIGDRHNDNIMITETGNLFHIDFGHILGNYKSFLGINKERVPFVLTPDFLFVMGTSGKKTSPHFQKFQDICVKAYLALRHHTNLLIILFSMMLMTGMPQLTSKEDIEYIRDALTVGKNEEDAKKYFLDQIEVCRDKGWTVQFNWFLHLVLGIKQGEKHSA
# measurement.description: Inhibition of PI3Kgamma (unknown origin)
reported.metric: pKi
Schema: pKi number; meaning minus log10 of the concentration expressed in molar units.

molecule="O=c1[nH]c(=O)n(C[C@H]2C3CCC(CC3)[C@@H]2Nc2nc(-c3c[nH]c4ncc(F)cc34)ncc2F)o1 (mixture of isomers)" reported_metric=pKi observed_measurement=6.20
molecule="CC(O)[C@H]1C2CCC(CC2)[C@@H]1Nc1nc(-c2c[nH]c3ncc(F)cc23)ncc1F (mixture of isomers)" reported_metric=pKi observed_measurement=6.11
molecule="CS(=O)(=O)[C@H]1C2CCC(CC2)[C@@H]1Nc1nc(-c2c[nH]c3ncc(F)cc23)ncc1F (mixture of isomers)" reported_metric=pKi observed_measurement=5.92
molecule="Cc1nnc([C@H]2C3CCC(CC3)[C@@H]2Nc2nc(-c3c[nH]c4ncc(F)cc34)ncc2F)o1 (mixture of isomers)" reported_metric=pKi observed_measurement=5.55
molecule="CC(=O)NS(=O)(=O)[C@H]1C2CCC(CC2)[C@@H]1Nc1nc(-c2c[nH]c3ncc(F)cc23)ncc1F (mixture of isomers)" reported_metric=pKi observed_measurement=5.82
molecule="NS(=O)(=O)[C@H]1C2CCC(CC2)[C@@H]1Nc1nc(-c2c[nH]c3ncc(F)cc23)ncc1F (mixture of isomers)" reported_metric=pKi observed_measurement=5.96
molecule="O=P(O)(O)CC[C@H]1C2CCC(CC2)[C@@H]1Nc1nc(-c2c[nH]c3ncc(F)cc23)ncc1F (mixture of isomers)" reported_metric=pKi observed_measurement=6.40

Read the next record carefully.
Hello, please tell me recorded pKi for this one: OCC(O)[C@H]1C2CCC(CC2)[C@@H]1Nc1nc(-c2c[nH]c3ncc(F)cc23)ncc1F (mixture of isomers) 6.15
